# Tested on: VRK2
# assay conditions: concentration: 1 μM, replicates: in singlicate; n = 1;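 note: KINOMEscan kinase panel screen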
Rule: %Inh below 2% gives fulfilled, anything at or above gives not fulfilled.

{"structure smiles string": "Cl.Cl.Cl.Fc1ccc(-c2ncn(C3CCNCC3)c2-c2ccnc(Nc3ccccc3)n2)cc1", "group": "not fulfilled"}
{"structure smiles string": "N#Cc1c(N2CCOCC2)sc(-c2ccn[nH]2)c1-c1ccc(Cl)cc1", "group": "not fulfilled"}
{"structure smiles string": "COc1ccc(COc2cc(-n3cnc4ccccc43)sc2C(N)=O)cc1", "group": "fulfilled"}
{"structure smiles string": "Cn1cc(-c2ccc3c(c2)CCN3C(=O)Cc2ccccc2Cl)c2c(N)ncnc21", "group": "fulfilled"}
{"structure smiles string": "Fc1ccc(-c2nn3c(OCC(F)(F)F)cccc3c2-c2ccncc2)cc1", "group": "not fulfilled"}
{"structure smiles string": "Cn1ccc2ncnc(Oc3ccc(NC(=O)Nc4ccncc4)c(Cl)c3)c21", "group": "fulfilled"}
{"structure smiles string": "NS(=O)(=O)CCc1cccc(Nc2nccc(-c3c(-c4cccc(NC(=O)c5c(F)cccc5F)c4)nn4ccccc34)n2)c1", "group": "fulfilled"}
{"structure smiles string": "O=C(NCCNc1ccnc(Nc2ccc(F)cc2)n1)Nc1ccccc1F", "group": "fulfilled"}

###

# key: entry, value: %Inh
# Test system: MST1R
# assay conditions: concentration: 1 μM, replicates: in singlicate; n = 1

{"compound": "N#Cc1ccc(-c2cc(-c3c[nH]nc3-c3ccccn3)ccn2)cc1 [GW693028]", "%Inh [%]": 26}
{"compound": "Cc1c(Cn2c(C)nn3c(=O)cc(N4CCOC(C)C4)nc23)cccc1C(F)(F)F (stereo not drawn) [GSK2344444]", "%Inh [%]": 28}
{"compound": "Cc1nnc(-c2ccc(C)c(-c3ccc(C(=O)Nc4ccc(NS(C)(=O)=O)cc4)cc3)c2)o1 [GW702865]", "%Inh [%]": 13}
{"compound": "COc1ccc(Nc2ncc(C#N)c(Nc3ccccc3C(N)=O)n2)cc1N1CCN(C)CC1.Cl [GSK1558669]", "%Inh [%]": 86}
{"compound": "O=C(NCCCN1CCOCC1)c1cccc(Nc2nccc(Nc3ccc(Oc4ccccc4)cc3)n2)c1 [GW663929]", "%Inh [%]": 37}
{"compound": "CN(C(=O)c1ccc(-c2cc(-c3c[nH]nc3-c3ccccn3)ccn2)cc1)C1CCOCC1 [GW810083]", "%Inh [%]": 0}
{"compound": "CNc1ncnc2[nH]ncc12 [SKF-18355]", "%Inh [%]": 0}
{"compound": "CC(C)(C)n1cnc2c(N)ncnc21 [SKF-97359]", "%Inh [%]": 0}
{"compound": "CSc1ccc(-c2cc3ncnc(SCC(=O)O)c3s2)cc1", "%Inh [%]": 36}

###

# key: entry, value: %Inh
# Tested on: MTOR
# assay conditions: concentration: 1 μM, replicates: in singlicate; n = 1
experimental endpoint: %Inh (%)

{"molecule": "Cc1ccc(NC(=O)c2ccnc(N3CCN(C)CC3)c2)cc1-c1ccc(C(=O)NCC2CC2)cc1 [GW775604]", "experimental endpoint": "%Inh", "readout value": 0}
{"molecule": "COc1ccc(Nc2ncc(C#N)c(Nc3ccccc3C(N)=O)n2)cc1N1CCN(C)CC1.Cl [GSK1558669]", "experimental endpoint": "%Inh", "readout value": 0}
{"molecule": "Cl.Oc1cccc(Nc2ccnc3cc(-c4ccncc4)ccc23)c1 [GW494601]", "experimental endpoint": "%Inh", "readout value": 4}
{"molecule": "COc1ccc(CNC(=O)NC2CCN(c3ccnc(Nc4ccc(OC)cc4)n3)C2)cc1 (centres unmarked) [GSK1379727]", "experimental endpoint": "%Inh", "readout value": 13}
{"molecule": "Nc1nccc(-c2c(-c3ccc(F)cc3)ncn2C2CCN(CC(F)(F)F)CC2)n1 [SB-236560]", "experimental endpoint": "%Inh", "readout value": 0}
{"molecule": "NS(=O)(=O)c1cccc(-c2ccc3nccc(-c4cccc(S(N)(=O)=O)c4)c3c2)c1 [GW867253]", "experimental endpoint": "%Inh", "readout value": 32}
{"molecule": "CN1c2ccc(NCc3ccc(F)cc3)cc2-c2c(cnn2C)S1(=O)=O", "experimental endpoint": "%Inh", "readout value": 20}
{"molecule": "O=C(Nc1cccc(-c2nn3ncccc3c2-c2ccnc(Nc3cccc(C(F)(F)F)c3)n2)c1)c1c(F)cccc1F [GSK299495]", "experimental endpoint": "%Inh", "readout value": 17}
